Where these numbers come from: paper PMC9352680

- subject-of-test: T1, PUF4 RNA-binding domain (Saccharomyces cerevisiae, UniProt P25339 537-888)
- T1 sequence: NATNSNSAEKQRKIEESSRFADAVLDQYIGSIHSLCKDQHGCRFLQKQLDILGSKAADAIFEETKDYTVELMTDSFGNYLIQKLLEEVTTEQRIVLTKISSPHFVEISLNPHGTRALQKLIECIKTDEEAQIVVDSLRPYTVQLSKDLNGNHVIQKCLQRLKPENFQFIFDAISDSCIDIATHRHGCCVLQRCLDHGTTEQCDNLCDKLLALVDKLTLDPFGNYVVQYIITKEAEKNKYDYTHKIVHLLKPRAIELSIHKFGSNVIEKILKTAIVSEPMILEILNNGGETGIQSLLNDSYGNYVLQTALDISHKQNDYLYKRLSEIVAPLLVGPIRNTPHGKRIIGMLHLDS
- measurement-description: Mg; RNA-MaP; 20 mM Na-HEPES pH 7.4, 30 mM KOAc, 0.75 mM MgCl2, 0.1% Tween-20, 5% glycerol, 0.1 mg/mL BSA, 2 mM DTT; 25 C; 0.0125-409.6 nM protein
- condition-info: tags: N-His6-TEV cleaved; C-SNAP kept, Cy3B-labelled; label: tethered on chip by stalled RNA polymerase
Hi! Just check whether Kd is below 10 nM. Below gives criterion met, equal or above gives criterion not met.

Answered cases to consult:
INSERT INTO results (binder, label_class) VALUES
  ('UCUCUUUGUACCACGUCUCUU (ssRNA) [Ic_S1_P4E.1_K4.1_C4.1_H4.1_A4.1_[T5C]_[A6C]_[T7A]_F4.1_[T8C]_[A9G]_T4.1]', 'criterion not met'),
  ('Ib_S2_P3E.1_K3.1_C3.1_H3.1_[G2C]_A3.1_[A6G]_F3.1_T3.1 (ssRNA) RNA: UUUGAUUAAUAUGAUAUCGUUCUUUCUUCUAUGUAUUCUUUCUCGAUAUCAUAUUAAUCUUU', 'criterion not met'),
  ('ACAAACGUUAUAUAUAGUACAAAC (ssRNA) [Id_ii_S3_P3E.3_K3.2_C3.2_[C-2G]_H3.2_A3.1_F3.1_T3.2_[T9G]_[A10T]]', 'criterion not met'),
  ('UCUCUUUAACACUUAUUAUUUCUCUU (ssRNA) [Id_ii_S1_P5E.4_K5.3_C5.2_[C-2T]_[T-1A]_H5.3_A5.1_F5.1_T5.2_[A12T]]', 'criterion not met'),
  ('Ib_S4_P5E.1_K5.1_C5.1_H5.1_[G2C]_A5.1_F5.1_[T8C]_T5.1 (ssRNA) RNA: UUUGACAACUGAUCGUUCUUUCUUCUAUUACUAUUCUUUCUCGAUCAGUUGUCUUU', 'criterion not met'),
  ('UCUCUUUGUAUAUCCUAUCUCUU (ssRNA) [Ie_S1_P4E.1_K4.1_C4.1_H4.1_A4.1_[+7CC]_F4.1_T4.1]', 'criterion not met');

In plain terms, does Ic_S2_P5E.1_K5.1_C5.1_H5.1_A5.1_[T5A]_[A7T]_F5.1_[T9G]_[A10C]_T5.1 (ssRNA) RNA: UUUGAUUAAUAUGAUAUCGUUCUUUCUUGUAAUUUGCUUCUUUCUCGAUAUCAUAUUAAUCUUU come in under 10 nM for Kd?
criterion not met

Determine if Ie_S2_P3E.2_K3.1_C3.2_H3.1_A3.1_F3.1_[+8TC]_T3.2 (ssRNA) RNA: UUUGAUUAAUAUGAUAUCGUUCUUUCUCUUGUAUAUAUCUAUUCUUUCUCGAUAUCAUAUUAAUCUUU shows Kd strictly lower than 10 nM.
criterion met

Please indicate whether the reported Kd of Ie_S2_P5E.1_K5.1_C5.1_H5.1_A5.1_[+5TTT]_F5.1_T5.1 (ssRNA) RNA: UUUGAUUAAUAUGAUAUCGUUCUUUCUUGUAUUUUUAUUAUUCUUUCUCGAUAUCAUAUUAAUCUUU is strictly below 10 nM.
criterion met

Report whether reported Kd is lower than 10 nM (strictly) for UCUCUUUCUAUAUUAUUAAAUCUCUU (ssRNA) [Id_ii_S1_P5E.3_K5.2_C5.2_[C-2T]_[T-1C]_H5.2_A5.1_F5.1_T5.2_[T11A]]
criterion not met

In plain terms, does Ib_S4_P5E.1_K5.1_C5.1_H5.1_[T3C]_[A4T]_A5.1_F5.1_T5.1 (ssRNA) RNA: UUUGACAACUGAUCGUUCUUUCUUGCUUUAUUAUUCUUUCUCGAUCAGUUGUCUUU come in under 10 nM for Kd?
criterion not met

Lab note: Kd threshold 10 nM. Does this binder come in strictly under it? Ic_S2_P5E.1_K5.1_C5.1_H5.1_A5.1_[T5A]_[T6A]_[A7C]_F5.1_[T9A]_T5.1 (ssRNA) RNA: UUUGAUUAAUAUGAUAUCGUUCUUUCUUGUAAACUAAUUCUUUCUCGAUAUCAUAUUAAUCUUU
criterion met
